# System: OVCAR-4 ovarian
# Assay summary: NCI tumour cell line growth inhibition, 48 h; in the data active = GI50 below about 0.43 µM; inactive = the rest
Field 'call' accepts active, inactive

For orientation, consider the following solved cases.
>>> group_label("COc1cc2c3c(n(CCCn4ccnc4)c(=O)c2cc1OC)-c1ccccc1C3=O")
"inactive"
>>> group_label("O=C(Nc1cccc(-c2nc3ccccc3[nH]2)c1)c1cccc(NC(=O)c2ccco2)c1")
"inactive"
>>> group_label("Cc1cc(Nc2nc(N3CCOCC3)nc3ccccc23)n[nH]1")
"inactive"
>>> group_label("CCOC(=O)c1ccc2[nH]c(Cc3[nH]c4ccc(C(=O)OCC)cc4c3C)c(C)c2c1")
"inactive"

Query: Any idea what this test logged for C/C(=C\c1ccn(-c2ccc(N)cc2C(F)(F)F)n1)[C@@H]1C[C@@H]2O[C@]2(C)CCC[C@H](C)[C@H](O)[C@@H](C)C(=O)C(C)(C)[C@@H](O)CC(=O)O1 ?
Response: inactive

Query: Would you mind telling me which call this test gave C=C1C(=O)O[C@H]2[C@H]1CC/C(COC(=O)NCCc1c[nH]c3ccccc13)=C\CC[C@@]1(C)O[C@@H]21 ?
Response: inactive

Query: Each compound tested received a call. Report the one for CC(=O)O[C@H]1C(=O)[C@@]2(C)[C@H]([C@H](OC(=O)c3ccccc3)[C@]3(O)C[C@H](OC(=O)[C@H](OC(=O)CCC(=O)OC4CCC(S/N=C(N)/N=C(\N)N(C)C)CC4)[C@@H](NC(=O)c4ccccc4)c4ccccc4)C(C)=C1C3(C)C)[C@]1(OC(C)=O)CO[C@@H]1C[C@@H]2O (stereo not given in full) .
Response: active

Query: Dear colleague, could you share the recorded outcome for O=C(/C=C/c1ccc2c(c1)OCO2)c1ccccc1 when you have a moment?
Response: inactive

Query: For Cc1cc(S(=O)(=O)/N=C(\N)n2nc(C)c(C)c2C)c(SCc2ccccc2)cc1Cl , which call appears in the assay record?
Response: inactive

Query: Hi team, can someone confirm the assay call for C=C1C(=O)O[C@H]2[C@H]1CC/C(COC(=O)N[C@@H](Cc1c[nH]c3ccccc13)C(=O)OC)=C\CC[C@@]1(C)O[C@@H]21 ?
Response: inactive

Query: Each compound tested received a call. Report the one for CN(C)c1ccc2[nH]c(O)c(C=Nc3ccc(S(N)(=O)=O)cc3)c2c1 .
Response: inactive

Query: Per the assay record, what outcome was assigned to O=[N+]([O-])c1ccccc1/C=C/C=C1c2ccccc2-c2ccccc21 ?
Response: inactive

Query: Which outcome did this test record for the compound CCC[CH2][Sn]([CH2]CCC)([O]C(=O)c1cccc(F)c1F)[O][Sn]([CH2]CCC)([CH2]CCC)[O]C(=O)c1cccc(F)c1F ?
Response: inactive

Query: Fill in: this test's call for Fc1ccc(Nc2ccc3cc(OCCCN4CCOCC4)ccc3n2)cc1F is ___
Response: inactive

Query: Test call for this compound, please: COc1cc(N)ccc1Nc1c2ccccc2nc2ccccc12
Response: inactive

Query: Recorded test call requested for Cc1ccc(-c2nc3nc(-c4ccc(Cl)cc4)nc(N4CCCNCC4)c3o2)cc1
Response: inactive

Query: Record lookup: outcome of this test for COc1ccc(C(=O)c2ccc(OC)cc2OC)cc1 ?
Response: inactive

Query: Please let me know the test result on file for COc1cc(/C=C/C(=O)CC(=O)/C=C/c2ccc(OC(=O)CCNC34CC5CC(CC(C5)C3)C4)c(OC)c2)ccc1OC(=O)CCNC12CC3CC(CC(C3)C1)C2 .
Response: inactive

Query: Check the results log: what was the call for COc1ccc2c(c1)/C(=C/c1c(-c3ccc(C)cc3)nc3sc(C)cn13)C(=O)N2 ?
Response: inactive

Query: Give the logged outcome of this assay for the following compound: O=c1[nH]cnc2c1nnn2[C@@H]1O[C@H](CO)[C@@H](O)[C@H]1O
Response: inactive

From: PubChem BioAssay (NCI)
